Biological target: Penicillium digitatum
Assay: Antifungal activity against Penicillium digitatum assessed as growth inhibition
Endpoint Label: pIC50
Would you please state pIC50, meaning minus log10 of the concentration in mol/L, as a bare number?

Solved cases below.
Compound | System | pIC50
CC(=O)CC1c2cc(Cl)ccc2N=C(n2ccnc2)N1c1ccc(F)cc1 (centres undefined) | Penicillium digitatum | 4.73
CCCCN1C(n2ccnc2)=Nc2ccccc2C1CC(C)=O (centres undefined) | Penicillium digitatum | 4.30
CC(=O)CC1c2ccccc2N=C(n2ccnc2)N1c1ccc(F)cc1 (centres undefined) | Penicillium digitatum | 4.93

Ask: Identify pIC50 associated with the compound CC(=O)CC1c2ccccc2N=C(n2ccnc2)N1c1ccc(Cl)cc1 (centres undefined)
Result: 4.55

###

Sequence of the target: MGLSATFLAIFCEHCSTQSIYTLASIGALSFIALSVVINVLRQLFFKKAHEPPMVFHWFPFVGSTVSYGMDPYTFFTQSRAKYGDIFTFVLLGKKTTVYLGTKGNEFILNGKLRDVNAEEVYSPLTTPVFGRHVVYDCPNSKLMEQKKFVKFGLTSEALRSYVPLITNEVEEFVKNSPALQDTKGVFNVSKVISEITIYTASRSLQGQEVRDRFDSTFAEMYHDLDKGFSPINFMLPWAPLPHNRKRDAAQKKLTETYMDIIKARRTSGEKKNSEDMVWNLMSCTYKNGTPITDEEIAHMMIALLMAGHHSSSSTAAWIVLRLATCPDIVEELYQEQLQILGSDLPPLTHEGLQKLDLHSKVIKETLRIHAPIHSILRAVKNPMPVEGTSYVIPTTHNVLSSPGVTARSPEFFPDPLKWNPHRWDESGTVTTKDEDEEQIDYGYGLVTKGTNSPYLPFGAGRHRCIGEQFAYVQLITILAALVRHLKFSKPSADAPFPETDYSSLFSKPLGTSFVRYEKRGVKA
Endpoint Label: pKd
Please note pKd is a logarithmic value: minus log10 of concentration in mol/L. Answer with that number alone.

Ask: Entry CC(=O)CC1c2ccccc2N=C(n2ccnc2)N1c1ccc(Cl)cc1 (centres undefined) needs its pKd filled in; supply it.
Result: 5.54

Ask: # return recorded pKd for input CC(=O)CC1c2cc(Cl)ccc2N=C(n2ccnc2)N1c1ccc(F)cc1 (centres undefined)
Result: 5.62

Ask: Retrieve pKd measured for CC(=O)CC1c2ccccc2N=C(n2ccnc2)N1c1ccc(F)cc1 (centres undefined) and print it.
Result: 6.01

Ask: Note down pKd recorded for CCCCN1C(n2ccnc2)=Nc2ccccc2C1CC(C)=O (centres undefined)
Result: 4.88
